target: T1, human activated protein C (human, UniProt P04070 43-197; P04070 212-461); assay: Octet BLI, antibody on Protein A sensor, huAPC 3.13-50 nM, 1:1 model, 25 C, pH 7.4
T1 construct: In the plasma assays aPC is generated in human plasma with Protac; also called aPC; haPC
endpoint_name: koff
Number first, unit second: that is the form wanted.

What value of koff has been recorded for this entry: HAPC-14-3 (antibody, V domains shown, Whole IgG, backbone hIgG1; also called HPAC 14-3; No. 3) VH: EVQLVESGGGLVQPGGSLRLSCAASGFTFSFYYLNWVRQAPGKGLEWVGDIRLKKNNYEKHYAESVKGRFTISRDDSKSITYLQMNSLRAEDTAVYYCAREGDYFDYWGQGTTVTVSS VL: DIQLTQSPSSLSASVGDRVTITCRASESVDSFGATFMHWYQQKPGKAPKLLIYLASRLGSGVPSRFSGSGSGTDFTLTISSLQPEDFATYYCVQNNEDPYTFGQGTKLEIK
0.000854 s⁻¹

What value of koff has been recorded for this entry: HAPC-14-8 (antibody, V domains shown, Whole IgG, backbone hIgG1; also called HPAC 14-8) VH: EVQLVESGGGLVQPGGSLRLSCAASGFTFSFYYLNWVRQAPGKGLEWVGDIRLKKNNYEKHYAESVKGRFTISRDDSKSITYLQMNSLRAEDTAVYYCAREGDTFDYWGQGTTVTVSS VL: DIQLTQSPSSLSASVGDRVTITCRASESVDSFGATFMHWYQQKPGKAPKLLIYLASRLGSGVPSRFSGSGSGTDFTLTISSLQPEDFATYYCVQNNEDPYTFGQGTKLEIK
0.00262 s⁻¹

What value of koff has been recorded for this entry: HAPC-14-7 (antibody, V domains shown, Whole IgG, backbone hIgG1; also called HPAC 14-7) VH: EVQLVESGGGLVQPGGSLRLSCAASGFTFSFYYLNWVRQAPGKGLEWVGDIRLKSNNYEKHYAESVKGRFTISRDDSKSITYLQMNSLRAEDTAVYYCAREGDYFDYWGQGTTVTVSS VL: DIQLTQSPSSLSASVGDRVTITCRASESVDSFGATFMHWYQQKPGKAPKLLIYLASRLESGVPSRFSGSGSGTDFTLTISSLQPEDFATYYCQQNNEDPYTFGQGTKLEIK
0.00197 s⁻¹

What value of koff has been recorded for this entry: HAPC-14-5 (antibody, V domains shown, Whole IgG, backbone hIgG1; also called HPAC 14-5) VH: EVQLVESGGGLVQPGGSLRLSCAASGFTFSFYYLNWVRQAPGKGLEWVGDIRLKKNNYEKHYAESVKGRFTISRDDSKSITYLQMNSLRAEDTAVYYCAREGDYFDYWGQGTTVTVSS VL: DIQLTQSPSSLSASVGDRVTITCRASESVDSFGATFMHWYQQKPGKAPKLLIYLASWLGSGVPSRFSGSGSGTDFTLTISSLQPEDFATYYCVQNNEDPYTFGQGTKLEIK
0.000911 s⁻¹

What value of koff has been recorded for this entry: HAPC-14-6 (antibody, V domains shown, Whole IgG, backbone hIgG1; also called HPAC 14-6; No. 6) VH: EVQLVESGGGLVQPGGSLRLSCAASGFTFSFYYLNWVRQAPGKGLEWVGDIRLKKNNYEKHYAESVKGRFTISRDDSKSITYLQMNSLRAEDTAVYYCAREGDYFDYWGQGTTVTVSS VL: DIQLTQSPSSLSASVGDRVTITCRASESVDSFGATFMHWYQQKPGKAPKLLIYLASRLGSGVPSRFSGSGSGTDFTLTISSLQPEDFATYYCQQNNEDPYTFGQGTKLEIK
0.00108 s⁻¹
